Origin of values: patent US20240174662A1

target: UniProtKB Q9H0K1; test: SIK2 Enzymatic Assay Version 2 (High ATP); assay type: biochemical; details: 3 mM ATP and 200 μM HDAC5tide final, ADP-Glo Max luminescence
Sequence (Q9H0K1 whole entry, species assumed): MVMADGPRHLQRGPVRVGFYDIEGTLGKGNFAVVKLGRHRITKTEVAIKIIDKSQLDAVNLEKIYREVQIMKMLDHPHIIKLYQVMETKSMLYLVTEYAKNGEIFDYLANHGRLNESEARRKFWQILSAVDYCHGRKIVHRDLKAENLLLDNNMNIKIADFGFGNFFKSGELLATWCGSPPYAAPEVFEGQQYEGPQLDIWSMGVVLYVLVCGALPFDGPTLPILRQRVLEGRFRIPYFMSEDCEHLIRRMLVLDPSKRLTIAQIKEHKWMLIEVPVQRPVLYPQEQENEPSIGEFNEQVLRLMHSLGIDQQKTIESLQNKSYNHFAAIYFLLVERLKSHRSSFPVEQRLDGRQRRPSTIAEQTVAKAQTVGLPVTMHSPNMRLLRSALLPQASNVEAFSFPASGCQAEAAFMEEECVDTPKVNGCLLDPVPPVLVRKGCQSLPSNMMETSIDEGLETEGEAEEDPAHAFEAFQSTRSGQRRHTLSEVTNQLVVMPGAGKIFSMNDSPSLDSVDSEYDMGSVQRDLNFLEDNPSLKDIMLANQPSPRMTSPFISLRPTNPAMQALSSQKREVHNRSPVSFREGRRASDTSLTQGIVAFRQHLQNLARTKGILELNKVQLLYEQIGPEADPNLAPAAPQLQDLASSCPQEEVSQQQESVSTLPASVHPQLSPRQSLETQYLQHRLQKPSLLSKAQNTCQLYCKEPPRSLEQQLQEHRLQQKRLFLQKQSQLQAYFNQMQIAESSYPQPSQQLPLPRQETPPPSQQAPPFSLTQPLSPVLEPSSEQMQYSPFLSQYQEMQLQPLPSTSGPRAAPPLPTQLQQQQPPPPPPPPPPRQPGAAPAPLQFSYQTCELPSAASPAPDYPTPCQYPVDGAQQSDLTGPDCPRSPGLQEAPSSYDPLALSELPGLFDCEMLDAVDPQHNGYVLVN
QUANTITY_KIND: IC50 (nM)
Numbers only, in nM.

Example molecules with recorded IC50:
{"MOLECULE": "CN1CC[C@@H]1COc1cnn(C)c1-c1ccn2nc(NC(=O)[C@@H]3C[C@H]3c3ccccc3)cc2c1 (single isomer, unassigned) [Example 157]", "MEASUREMENT_TARGET": "UniProtKB Q9H0K1", "RESULT_UNIT": "nM", "IC50": 11.1}
{"MOLECULE": "CCN1CC[C@@H]1COc1cnn(C)c1-c1ccn2nc(NC(=O)[C@H]3C[C@@H]3C)cc2c1 [Example 25]", "MEASUREMENT_TARGET": "UniProtKB Q9H0K1", "RESULT_UNIT": "nM", "IC50": 5.8}
{"MOLECULE": "C[C@@H]1C[C@H](Oc2cnn(C)c2-c2ccn3nc(NC(=O)C4CC4)cc3c2)CN1 [Example 233]", "MEASUREMENT_TARGET": "UniProtKB Q9H0K1", "RESULT_UNIT": "nM", "IC50": 30.2}
{"MOLECULE": "CO[C@@H]1CN(C)C[C@@H]1Oc1noc(C)c1-c1ccn2nc(NC(=O)C3CC3)cc2c1 (relative stereo) [Example 317]", "MEASUREMENT_TARGET": "UniProtKB Q9H0K1", "RESULT_UNIT": "nM", "IC50": 67.8}

Give one value of IC50 per listed molecule.
1. CN1CC[C@@H]1COc1cnn(C)c1-c1ccn2nc(Nc3cnc(C(F)(F)F)cn3)cc2c1 [Example 117]
2. Cc1onc(O[C@H]2CCNC2)c1-c1ccn2nc(NC(=O)C3CC3)cc2c1 [Example 75]
3. Cc1cc(Nc2cc3cc(-c4c(OC[C@H]5CCN5CCF)cnn4C)ccn3n2)ncn1 [Example 277]
4. CC[C@@H]1CN(C)[C@@H]1COc1cnn(C)c1-c1ccn2nc(NC(=O)C3CC3)cc2c1 [Example 11]
5. Cc1cc(Nc2cc3cc(-c4c(O[C@@H]5CCN[C@H]5C)cnn4C)ccn3n2)nc(C)n1 [Example 298]
6. CN1CC[C@H](Oc2cnn(C)c2-c2ccn3nc(Nc4cncc(C(F)(F)F)n4)cc3c2)C1 [Example 7]

stdout:
1. 8.8
2. 35
3. 1.4
4. 117
5. 39.2
6. 78.7

Give me IC50 for each of these molecules, listed below.
1. Cn1ncc(OCC2(N)CC2)c1-c1ccn2nc(NC(=O)C3CC3)cc2c1 [Example 506]
2. CN1C[C@H](c2ccccc2)C[C@@H]1COc1cnn(C)c1-c1ccn2nc(NC(=O)C3CC3)cc2c1 [Example 257]
3. CO[C@@]1(COc2noc(C)c2-c2ccn3nc(NC(=O)C4CC4)cc3c2)CCNC1 (single isomer, unassigned) [Example 209]

stdout:
1. 350
2. 23.5
3. 14.9
